Tested on: SK-MEL-28
Test: NCI tumour cell line growth inhibition, 48 h
Activity calls are given as the source filed them. No stated cut-off is given here; in the data, active = GI50 up to about 1.1 µM and inactive = higher.
quantity: GI50

Would you please look over these solved cases?
molecule: Oc1ccc2ccccc2c1C(c1ccc(Cl)cc1)c1c(O)ccc2ccccc12
GI50: 3.87 µM (inactive)

molecule: CC(C)=CCC/C(C)=C/CC/C(C)=C/CC/C(C)=C/C=C/C=C(\C)CC/C=C(\C)CC/C=C(\C)CCC=C(C)C
GI50: > 100 µM (inactive)

molecule: O=C(NNC(=S)Nc1ccccc1)c1ccccc1Nc1ccccc1C(=O)NNC(=S)Nc1ccccc1
GI50: 33 µM (inactive)

molecule: O=c1cnn(C/C=C/CP(=O)(O)O)c(=O)[nH]1
GI50: > 100 µM (inactive)

molecule: FC(F)(F)C1(Cl)C(c2ccccc2)=C1c1ccccc1
GI50: 14.9 µM (inactive)

molecule: CC1=NN(c2cccc(Cl)c2)C2(C1=C/C=C/c1ccccc1)C(Cl)C(=O)N2c1nc2ccccc2s1 (stereo not given)
GI50: 26.2 µM (inactive)

molecule: O=C(Nc1cccc(NC(=O)c2cc(=O)c3ccccc3o2)n1)c1cc(=O)c2ccccc2o1
GI50: 62.4 µM (inactive)

molecule: Nc1nc(N)c2ncn(-c3ccc(Br)cc3)c2n1
GI50: > 43.3 µM (inactive)

molecule: Cc1ccc(/N=N/C(=O)NNc2ccc(C)cc2Br)c(Br)c1
GI50: 21.4 µM (inactive)

# GI50 of CCOC(=O)NC1CN2CCC1CC2 (stereo not given) = > 100 µM (inactive)

* * *

Catalogue of compounds with associated GI50
Test system: COLO 205
Test: NCI tumour cell line growth inhibition, 48 h
Calls of active or inactive are those of the source. Rule as the data show it: active = GI50 up to about 1.1 µM and inactive = higher.

A selection of reference data follows.
compound: CCc1cc(Cc2cc(CC)c(NC(=O)C3=CC(=O)CC(c4ccc(OC)cc4)O3)c(CC)c2Cl)c(Cl)c(CC)c1NC(=O)C1=CC(=O)CC(c2ccc(OC)cc2)O1 (stereo not given)
assay.system: COLO 205
GI50: 17.8 µM (inactive)
--
compound: CCOC(=O)c1nc2ccc(C(F)(F)F)cc2nc1Oc1cc(OC)c(OC)c(OC)c1
assay.system: COLO 205
GI50: 17.7 µM (inactive)

Short answer for "Cc1nn2c(N)cc(=O)nc2nc1/C=C/c1ccc(N(C)C)cc1" : GI50 was 7.74 µM (inactive)

* * *

Tested on: A498
Assay: NCI tumour cell line growth inhibition, 48 h
The source made the active and inactive calls. Rule as the data show it: active = GI50 up to about 1.1 µM and inactive = higher.
quantity: GI50

compound: CC(=O)O[C@H]1CCN2C(=O)C=CC(OCc3ccccc3)C12 (stereo partly specified)
assay.value: > 100 µM (inactive)

The compound identified as "COC(=O)[C@@H]1CO[C@H](C(C)(C)C)N1C(=O)N1C=CC(=O)C[C@H]1C" registered its GI50 at > 100 µM (inactive)

The compound identified as "Nc1ccc(/N=N/c2c(S(=O)(=O)O)cc3ccccc3c2S(=O)(=O)O)cc1" registered its GI50 at > 100 µM (inactive)

Entry "CNC(=S)/C(C#N)=C(\N)N1CCCC1" ; GI50 = > 100 µM (inactive)

get_value(item= CCC#CCCCCCCCCC(F)C(=O)O (stereo unspecified) , readout=GI50) returns > 100 µM (inactive)

Lab note: measured GI50 of "CCOC(=O)Cc1ccc(Nc2nc3ccccc3nc2C(=O)OCC)cc1" was 20.7 µM (inactive)

For this compound ( "CC(C)OC(=O)[C@@H](O)[C@H](CO)C1=CC([Si](C)(C)c2ccccc2)=CON1" ), measured GI50 is > 100 µM (inactive)

Reported GI50 for "COCCN(CCNC(=O)c1cccc2c(N)c3cccc(C)c3nc12)CCOC" was 2.78 µM (inactive)

Looking up CC(C)(C)OC(=O)n1cc(C2CN(O)C(=O)C23CCC(=O)N3Cc2ccccc2)c2ccccc21 (stereo unspecified) , I see its GI50 listed as 24.8 µM (inactive)

Memo: "CC(C)c1cccc(C(=O)NCCN(C)C)c1[N+](=O)[O-]" , reported GI50: 65.9 µM (inactive)

Kindly note the recorded GI50 for "O=C1CN2Cc3cc(N4CCOCC4)ccc3N=C2N1" , which is 91 µM (inactive)

* * *

Tested on: MDA-MB-231
Test: NCI tumour cell line growth inhibition, 48 h
Activity calls are given as the source filed them. No stated cut-off is given here; in the data, active = GI50 up to about 1.1 µM and inactive = higher.
quantity: GI50

Worked cases, answers included:
compound: CCCNC1=C2C[C@@H](C)C[C@@H](OC)[C@@H](OC(=O)CCCN)[C@H](C)/C=C(\C)[C@@H](OC(N)=O)[C@H](OC)/C=C\C=C(/C)C(=O)NC(=CC1=O)C2=O
GI50: 14.1 µM (inactive)
//
compound: CN(C)/N=N/c1ccc2[nH]c(=O)[nH]c2c1
GI50: > 100 µM (inactive)

Observed GI50, MDA-MB-231, "CCOc1ccc(NC(=O)C(=O)Nn2c(N)nnc2N)cc1" : > 100 µM (inactive)

Reported MDA-MB-231 GI50 for item "CC(C)OC(=O)[C@@H](O)[C@H](CO)C1=CC([Si](C)(C)c2ccccc2)=CON1" was > 100 µM (inactive)

Entry "CCOC(=O)c1nc2ccc(C(F)(F)F)cc2nc1Oc1cc(OC)c(OC)c(OC)c1" : GI50 on MDA-MB-231 = 87.7 µM (inactive)

Hey, MDA-MB-231 data for c1ccc(C2=Nc3nc4ccccc4n3C(c3ccccc3)C2)cc1 (centres undefined) : GI50 came out at 70.6 µM (inactive)

Readout GI50 for "N#CCCN(C(=O)Nc1ccc(NC(=O)N(CCC#N)c2ccccc2)cc1)c1ccccc1" , test system MDA-MB-231, was > 100 µM (inactive)

// compound NC(=O)CNC(=O)[C@@H]1CC(OCCC(=O)O)CN1C(=O)C1CCCN1C(=O)OCc1ccccc1 (some centres undefined) , assay MDA-MB-231, GI50 value: > 100 µM (inactive)

Record for "O=C1CN2Cc3cc(N4CCOCC4)ccc3N=C2N1" under target or system MDA-MB-231: GI50 reported as 88.1 µM (inactive)

* * *

System: NCI-H23
Test: NCI tumour cell line growth inhibition, 48 h
Calls of active or inactive are those of the source. No stated cut-off is given here; in the data, active = GI50 up to about 1.1 µM and inactive = higher.
I would appreciate it if you answered using one of these outcomes: active, inactive

# example entries with known answers
compound: O=C1NC2(CCCC2)C(=O)C12CCCC2
group: inactive

compound: CCOc1cc(/C=N/c2nc3cc4sc(/N=C/c5ccc(O)c(OCC)c5)nc4cc3s2)ccc1O
group: inactive

compound: NC1CCC(N(CC(=O)O)CC(=O)O)C(N(CC(=O)O)CC(=O)O)C1 (stereo unspecified)
group: inactive

compound: c1ccc(C2=Nc3nc4ccccc4n3C(c3ccccc3)C2)cc1 (stereo unspecified)
group: inactive

compound: CCOC(=O)CCn1[nH]c(=O)c(Cl)c(Cl)c1=O
group: inactive

Next item in the queue.
*Q* Recorded call for CN(C)CC(O)c1ccc(Cl)c2ccccc12 (stereo unspecified) ?
*A* inactive

* * *

System: OVCAR-4
Experiment: NCI tumour cell line growth inhibition, 48 h
Activity calls are given as the source filed them. No stated cut-off is given here; in the data, active = GI50 up to about 1.1 µM and inactive = higher.
Each entry below lists one item and its recorded GI50 value.

For orientation, consider the following solved cases.
compound: CCC#CCCCCCCCCC(F)C(=O)O (stereo not given)
GI50: > 100 µM (inactive)
--
compound: COC(=O)c1cc(=O)n(-c2ccc3nn(C)nc3c2)cc1C(=O)OC
GI50: > 100 µM (inactive)
--
compound: CCOC(=O)Cc1ccc(Nc2nc3ccccc3nc2C(=O)OCC)cc1
GI50: 77.1 µM (inactive)
--
compound: CC/C=C\C=C/C(=O)N/C=C/CCC
GI50: > 100 µM (inactive)

Lab note: measured GI50 of NC1CCC(N(CC(=O)O)CC(=O)O)C(N(CC(=O)O)CC(=O)O)C1 (stereo not given) was > 100 µM (inactive)

Data point: "Nc1nc(N)nc(-c2ccccc2NS(=O)(=O)c2ccc([N+](=O)[O-])cc2)n1" ; GI50 = 44.2 µM (inactive)

Record "CC(=O)Oc1ccc(/C=C/C(=O)O[C@@H](C)[C@H](C)OC(=O)/C=C/c2ccc(OC(C)=O)c(OC(C)=O)c2)cc1OC(C)=O" , field GI50: 28.7 µM (inactive)

For record "C1CN2CCNCCN(CCN1)CC2" the listed GI50 is > 100 µM (inactive)

Memo: "Oc1ccc2ccccc2c1C(c1ccc(Cl)cc1)c1c(O)ccc2ccccc12" , reported GI50: 3.05 µM (inactive)

Item: "O=C(c1c(F)c(F)c(F)c(F)c1F)N1CCN(C(=O)c2c(F)c(F)c(F)c(F)c2F)C1=S" | GI50: 5.22 µM (inactive)

* * *

Below: a set of entries, each annotated with reported GI50.
Tested on: HOP-62
Assay: NCI tumour cell line growth inhibition, 48 h
Activity calls are given as the source filed them. Rule as the data show it: active = GI50 up to about 1.1 µM and inactive = higher.

As a guide, the following entries are already answered.
compound: CC1=CC(C)(C)N=C2SC(c3ccc(Cl)cc3)=NN12
assay.system: HOP-62
GI50: 54.3 µM (inactive)
//
compound: CC(O)C1CC1(CO)CNc1cc(Cl)nc(N)n1 (stereo unspecified)
assay.system: HOP-62
GI50: > 100 µM (inactive)
//
compound: COc1cccc2c3ccccc3c3nc[nH]c3c12
assay.system: HOP-62
GI50: 54.3 µM (inactive)
//
compound: O=Cc1c(-c2ccccc2)nc2ccccc2c1O
assay.system: HOP-62
GI50: 92.7 µM (inactive)
//
compound: Cc1cc(Cc2cc(C)c(N)cc2N)c(N)cc1N
assay.system: HOP-62
GI50: 93.5 µM (inactive)

Shifting focus to the compound that follows.
Reported GI50 of [N-]=[N+]=NC1(c2ccccc2)C(=O)C(Cl)=C(c2ccccc2)N(c2ccccc2)C1=O (stereo unspecified) : > 100 µM (inactive)
